test system: H. influenzae ATCC 49766; experiment: microdilution assay MIC, H. influenzae ATCC 49766; type: cell-based, Haemophilus influenzae; conditions: average where multiple assays
reportedMetric: MIC (µg/mL)
Respond numerically; units are µg/mL and should not be typed.

>  <molecule>
COC1(C)CC(C)C(=O)C(C)C2NC(=O)OC2(C)C(CCNC(=O)Oc2ccc(F)cc2)OC(=O)C(C)C(=O)C(C)C1OC1OC(C)CC(N(C)C)C1O (centres unmarked) [Compound 116]

>  <MIC [µg/mL]>
6.25

$$$$
>  <molecule>
COC1(C)CC(C)C(=O)C(C)C2NC(=O)OC2(C)C(CCNC(=O)Oc2cccc(-c3cccnc3)c2)OC(=O)C(C)C(=O)C(C)C1OC1OC(C)CC(N(C)C)C1O (centres unmarked) [Compound 109]

>  <MIC [µg/mL]>
1.56

$$$$
>  <molecule>
COC1(C)CC(C)C(=O)C(C)C2NC(=O)OC2(C)C(CCNS(=O)(=O)c2cccc3ccccc23)OC(=O)C(C)C(=O)C(C)C1OC1OC(C)CC(N(C)C)C1O (centres unmarked) [Compound 106]

>  <MIC [µg/mL]>
6.25

$$$$

Problem: Given the molecule COC1(C)CC(C)C(=O)C(C)C2NC(=O)OC2(C)C(CCN2CCCCC2)OC(=O)C(C)C(=O)C(C)C1OC1OC(C)CC(N(C)C)C1O (centres unmarked) [Compound 102] , what is its reported MIC?
Result: 6.25

---

system: S. pneumoniae ATCC 700905; assay: microdilution assay MIC, S. pneumoniae ATCC 700905; type: cell-based, Streptococcus pneumoniae; conditions: S. pneumoniae ATCC 700905, erythromycin A resistant strain; average where multiple assays
Below is a list of entries, each paired with its recorded MIC value.

Reference set, count: 4
>  <compound>
COC1(C)CC(C)C(=O)C(C)C2NC(=O)OC2(C)C(CCNC(=O)OCC(C)C)OC(=O)C(C)C(=O)C(C)C1OC1OC(C)CC(N(C)C)C1O (centres unmarked)

>  <endpointResult>
0.025 µg/mL

$$$$
>  <compound>
COC1(C)CC(C)C(=O)C(C)C2NC(=O)OC2(C)C(CCN(Cc2cccc(-c3ccco3)c2)Cc2cccc(-c3ccco3)c2)OC(=O)C(C)C(=O)C(C)C1OC1OC(C)CC(N(C)C)C1O (centres unmarked)

>  <endpointResult>
>12.5 µg/mL

$$$$
>  <compound>
COC1(C)CC(C)C(=O)C(C)C2NC(=O)OC2(C)C(CCNC(=O)Oc2ccc(-c3ccccc3)cc2)OC(=O)C(C)C(=O)C(C)C1OC1OC(C)CC(N(C)C)C1O (centres unmarked)

>  <endpointResult>
0.025 µg/mL

$$$$
>  <compound>
COC1(C)CC(C)C(=O)C(C)C2NC(=O)OC2(C)C(CCNS(=O)(=O)c2cccc3cccnc23)OC(=O)C(C)C(=O)C(C)C1OC1OC(C)CC(N(C)C)C1O (centres unmarked)

>  <endpointResult>
0.01 µg/mL

$$$$

Problem: Given the compound CCN(C)CCC1OC(=O)C(C)C(=O)C(C)C(OC2OC(C)CC(N(C)C)C2O)C(C)(OC)CC(C)C(=O)C(C)C2NC(=O)OC12C (centres unmarked) , what is its reported MIC?
Result: 3.12 µg/mL

---

system: S. aureus ATCC 6538p; experiment: microdilution assay MIC, S. aureus ATCC 6538p; format: cell-based, Staphylococcus aureus; conditions: erythromycin sensitive strain, average where multiple assays
Values of MIC strictly less than 0.03 µg/mL map to 1 (yes), and values of at least 0.03 µg/mL map to 0 (no).

Here's what some known entries look like.
>  <compound>
COC1(C)CC(C)C(=O)C(C)C2NC(=O)OC2(C)C(CCN(C)CCc2cccc(-c3ccco3)c2)OC(=O)C(C)C(=O)C(C)C1OC1OC(C)CC(N(C)C)C1O (centres unmarked)

>  <assignedLabel>
0 (no)

$$$$
>  <compound>
CCN(C)CCC1OC(=O)C(C)C(=O)C(C)C(OC2OC(C)CC(N(C)C)C2O)C(C)(OC)CC(C)C(=O)C(C)C2NC(=O)OC12C (centres unmarked)

>  <assignedLabel>
0 (no)

$$$$
>  <compound>
COC1(C)CC(C)C(=O)C(C)C2NC(=O)OC2(C)C(CCNS(=O)(=O)c2cccc3cccnc23)OC(=O)C(C)C(=O)C(C)C1OC1OC(C)CC(N(C)C)C1O (centres unmarked)

>  <assignedLabel>
0 (no)

$$$$

Problem: I wonder whether COC1(C)CC(C)C(=O)C(C)C2NC(=O)OC2(C)C(CCNS(=O)(=O)c2ccc3ccccc3c2)OC(=O)C(C)C(=O)C(C)C1OC1OC(C)CC(N(C)C)C1O (centres unmarked) has MIC below 0.03 µg/mL. Can you tell?
Result: 1 (yes)

Problem: I wonder whether COC1(C)CC(C)C(=O)C(C)C2NC(=O)OC2(C)C(CCNC(=O)Oc2cccc3ccccc23)OC(=O)C(C)C(=O)C(C)C1OC1OC(C)CC(N(C)C)C1O (centres unmarked) has MIC below 0.03 µg/mL. Can you tell?
Result: 1 (yes)

---

test system: S. aureus ATCC 14154; test: microdilution assay MIC, S. aureus ATCC 14154; assay type: cell-based, Staphylococcus aureus; conditions: S. aureus ATCC 14154, erythromycin A resistant strain; average where multiple assays
reportedMetric: MIC

Reference set, count: 2
>  <compound>
COC1(C)CC(C)C(=O)C(C)C2NC(=O)OC2(C)C(CCN(C)CCc2cccc(-c3ccco3)c2)OC(=O)C(C)C(=O)C(C)C1OC1OC(C)CC(N(C)C)C1O (stereo not drawn)

>  <reportedMetric>
MIC

>  <endpointResult>
0.39 µg/mL

$$$$
>  <compound>
CCN(C)CCC1OC(=O)C(C)C(=O)C(C)C(OC2OC(C)CC(N(C)C)C2O)C(C)(OC)CC(C)C(=O)C(C)C2NC(=O)OC12C (stereo not drawn)

>  <reportedMetric>
MIC

>  <endpointResult>
6.25 µg/mL

$$$$

Problem: Any idea what MIC came out for COC1(C)CC(C)C(=O)C(C)C2NC(=O)OC2(C)C(CCN(Cc2cccc(-c3ccco3)c2)Cc2cccc(-c3ccco3)c2)OC(=O)C(C)C(=O)C(C)C1OC1OC(C)CC(N(C)C)C1O (stereo not drawn) on S. aureus ATCC 14154?
Result: 6.25 µg/mL

---

Below is a list of entries, each paired with its recorded MIC value.
system: S. pneumoniae ATCC 700905; test: microdilution assay MIC, S. pneumoniae ATCC 700905; type: cell-based, Streptococcus pneumoniae; details: S. pneumoniae ATCC 700905, erythromycin A resistant strain; average where multiple assays
Respond numerically; units are µg/mL and should not be typed.

>  <compound>
COC1(C)CC(C)C(=O)C(C)C2NC(=O)OC2(C)C(CCN2CCCCC2)OC(=O)C(C)C(=O)C(C)C1OC1OC(C)CC(N(C)C)C1O (stereo not shown) [Compound 102]

>  <system>
S. pneumoniae ATCC 700905

>  <endpointResult>
0.098

$$$$
>  <compound>
COC1(C)CC(C)C(=O)C(C)C2NC(=O)OC2(C)C(CCNC(=O)OCC2c3ccccc3-c3ccccc32)OC(=O)C(C)C(=O)C(C)C1OC1OC(C)CC(N(C)C)C1O (stereo not shown) [Compound 115]

>  <system>
S. pneumoniae ATCC 700905

>  <endpointResult>
0.025

$$$$
>  <compound>
COC1(C)CC(C)C(=O)C(C)C2NC(=O)OC2(C)C(CCNC(=O)Oc2cccc(-c3cccnc3)c2)OC(=O)C(C)C(=O)C(C)C1OC1OC(C)CC(N(C)C)C1O (stereo not shown) [Compound 109]

>  <system>
S. pneumoniae ATCC 700905

>  <endpointResult>
0.025

$$$$

Now consider the entry below.
Problem: Given the compound COC1(C)CC(C)C(=O)C(C)C2NC(=O)OC2(C)C(CCNC(=O)Oc2cccc3ccccc23)OC(=O)C(C)C(=O)C(C)C1OC1OC(C)CC(N(C)C)C1O (stereo not shown) [Compound 114] , what is its reported MIC?
Result: 0.025
